Measured pIC50, listed per entry for reference.
- Subject Of Test: UniProtKB P42345
- Sequence (P42345 1360-2549 limits assumed): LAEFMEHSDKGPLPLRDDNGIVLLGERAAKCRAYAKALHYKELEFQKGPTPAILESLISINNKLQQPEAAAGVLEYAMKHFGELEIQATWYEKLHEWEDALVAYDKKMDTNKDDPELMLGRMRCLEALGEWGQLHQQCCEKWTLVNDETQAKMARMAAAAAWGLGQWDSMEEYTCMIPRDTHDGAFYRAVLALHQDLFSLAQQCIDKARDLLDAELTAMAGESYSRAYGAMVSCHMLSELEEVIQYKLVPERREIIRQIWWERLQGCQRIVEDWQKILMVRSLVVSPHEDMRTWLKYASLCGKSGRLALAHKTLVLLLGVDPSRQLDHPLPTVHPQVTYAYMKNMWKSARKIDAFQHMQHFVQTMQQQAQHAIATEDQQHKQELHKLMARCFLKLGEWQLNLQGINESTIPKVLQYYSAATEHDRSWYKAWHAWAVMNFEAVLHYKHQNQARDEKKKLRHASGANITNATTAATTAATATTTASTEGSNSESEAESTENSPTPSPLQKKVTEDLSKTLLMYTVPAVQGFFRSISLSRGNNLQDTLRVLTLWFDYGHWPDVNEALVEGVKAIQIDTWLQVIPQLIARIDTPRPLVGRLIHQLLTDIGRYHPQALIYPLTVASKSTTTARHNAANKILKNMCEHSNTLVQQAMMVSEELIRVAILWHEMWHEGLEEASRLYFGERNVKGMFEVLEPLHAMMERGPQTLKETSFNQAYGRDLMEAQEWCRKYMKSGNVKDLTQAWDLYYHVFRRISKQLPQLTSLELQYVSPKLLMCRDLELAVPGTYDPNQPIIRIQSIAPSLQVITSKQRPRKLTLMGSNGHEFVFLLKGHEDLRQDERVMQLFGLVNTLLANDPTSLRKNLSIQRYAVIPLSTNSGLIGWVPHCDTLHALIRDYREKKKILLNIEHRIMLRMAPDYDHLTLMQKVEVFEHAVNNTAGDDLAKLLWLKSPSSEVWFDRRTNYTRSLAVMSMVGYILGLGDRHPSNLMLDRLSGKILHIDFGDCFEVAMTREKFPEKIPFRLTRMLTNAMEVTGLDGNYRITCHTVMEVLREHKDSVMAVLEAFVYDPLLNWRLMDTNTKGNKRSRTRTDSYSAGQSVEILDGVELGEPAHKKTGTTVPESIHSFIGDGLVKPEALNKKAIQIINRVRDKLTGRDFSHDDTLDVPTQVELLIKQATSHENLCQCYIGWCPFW
- Assay Info: mTOR enzyme assay (DELFIA, purified FLAG-TOR, His6-S6K substrate)
- Format: biochemical
- Set-up: FLAG
- Conditions: 100 μM ATP, 2 hours
API: returns pIC50 as number; meaning -log10 of concentration in mol/L.

As a guide, the following entries are already answered.
> print(dat)
                                smiles.repr   subject.of.test  recorded.value
1  C[C@@H]1COCCN1c1cc(N2C3CCC2COC3)nc(-c2ccc(NC(=O)Nc3ccc(CN4CCN(C)CC4)cc3)cc2)n1  UniProtKB P42345            8.92
2  CN1CCN(c2ccc(NC(=O)Nc3ccc(-c4nc(N5C6CCC5COC6)cc(N5C6CCC5COC6)n4)cc3)cc2)CC1  UniProtKB P42345            8.77
3  CN1CCN(c2ccc(NC(=O)Nc3ccc(-c4cc(N5CC6CCC(C5)O6)nc(-c5ccc(NC(=O)Nc6ccc(N7CCN(C)CC7)cc6)cc5)n4)cc3)cc2)CC1  UniProtKB P42345            8.67
4  CN(C)CCOc1ccc(NC(=O)Nc2ccc(-c3nc(CS(C)(=O)=O)cc(N4CC5CCC(C4)O5)n3)cc2)cc1  UniProtKB P42345            8.30
5  O=C(Nc1ccc(-c2cc(N3CC4CCC(C3)O4)nc(-c3ccc(NC(=O)NC4CC4)cc3)n2)cc1)NC1CC1  UniProtKB P42345            8.40

Exercise: Suppose we examine the compound CN1CCN(c2ccc(NC(=O)Nc3ccc(-c4nc(N5CC6CCC(C5)O6)cc(N5CC6CCC(C5)O6)n4)cc3)cc2)CC1 ; what pIC50 value has been reported?
Key: 8.59

Exercise: Suppose we examine the compound O=C(Nc1ccncc1)Nc1ccc(-c2nc(N3C4CCC3COC4)cc(N3C[C@@H]4C[C@H]3CO4)n2)cc1 ; what pIC50 value has been reported?
Key: 8.52

Exercise: Suppose we examine the compound CS(=O)(=O)Cc1cc(N2CC3CCC(C2)O3)nc(-c2ccc(NC(=O)Nc3ccncc3)cc2)n1 ; what pIC50 value has been reported?
Key: 9.08

Exercise: Suppose we examine the compound C[C@@H]1COCCN1c1cc(N2C3CCC2COC3)nc(-c2ccc(NC(=O)Nc3cccnc3)cc2)n1 ; what pIC50 value has been reported?
Key: 9.11
